// reported LC50 for each item listed
# Test system: Ctenocephalides felis
# protocol notes: Insecticidal activity against cyclodiene resistant allele-homozygous serine S/S flea by contact assay
# Type: functional
# conditions used: read-out: LD50 (the source's name)
# output: bare number, implied unit µM

Examples with their reported LC50 follow.
CC1(O)c2cn(-c3c(Cl)cc(C(F)(F)F)cc3Cl)nc2CC1(F)F (stereo not given) | 10000
COC1(C)c2cn(-c3c(Cl)cc(C(F)(F)F)cc3Cl)nc2CC1F (stereo not given) | 1800

Memo: FC1Cc2nn(-c3c(Cl)cc(C(F)(F)F)cc3Cl)cc2C1(F)F (stereo not given) , reported LC50: 1000

Memo: FC1CCc2cn(-c3c(Cl)cc(C(F)(F)F)cc3Cl)nc21 (stereo not given) , reported LC50: 11000

Memo: `FC(F)(F)c1cc(Cl)c(-n2cc3c(n2)CCC3(F)F)c(Cl)c1` , reported LC50: 1000

Memo: `FC1(F)Cc2cn(-c3c(Cl)cc(C(F)(F)F)cc3Cl)nc2C1` , reported LC50: 2000

Memo: `FC(F)(F)c1cc(Cl)c(-n2cc3c(n2)C(F)(F)CC3)c(Cl)c1` , reported LC50: 15000

Memo: CC1(O)c2cn(-c3c(Cl)cc(C(F)(F)F)cc3Cl)nc2C(F)C1F (stereo not given) , reported LC50: 5000

Data provenance: ChEMBL document CHEMBL1139031
